Can you tell me protein stability index for the items I'm about to list?
Experiment: protein stability index of a GFP-peptide fusion (yeast GPS) (PSI 1-4); higher = more stable; sorted into four equal gates, so the index is relative within each strain
Conditions: pdr5∆
Please respond with just the number, no unit label.

Request: Return reported protein stability index; argument: VLITSYEMVIREKNALK [ISW2]
Response: 2.53

Request: Also check QANTEPENITKREASRG [MCD1]
Response: 2.84

Request: Try this sequence next: YSKAAEPHAVSLAWSAD [ASC1]
Response: 2.87

Request: Let us now turn to HVEKERASTELSQSRIK [YIL149C/MLP2]
Response: 2.93

Request: Quick one: SLKLENSDLEGKIRGVE [SMC2]
Response: 3.37

Request: Same lookup for NLYDDVKCWSKFIEKFQ [MED1] , please.
Response: 3.07

Request: And the next one, ALNSMCASIPIAIIKDT [RRP46] ?
Response: 1.67

Request: RKDENQFSYVDSSMTTV [AAR2] , same question.
Response: 3.09

Request: Moving on to PRGVLLYGPPGTGKTML [RPT3]
Response: 2.57

Request: Follow-up entry: AFSYEQAQLRIDDKTQN [DIS3]
Response: 2.81

Request: Try this sequence too: DHILFTKTFIFIYKKVL [SRB8]
Response: 1.14

Request: Proceed to KKLEITSDGALSVMCGC [RPR2]
Response: 2.82

Request: Subsequent entry: VEGPKFTIDAKPPISDS [YLR335W/NUP2]
Response: 3.47

Request: Try IKKVICGAWEPAITIEK [SIR3] next.
Response: 2.45
